Biological target: Estrogen receptor beta (Homo sapiens) (UniProt Q92731)
Sequence (Q92731 whole entry, looked up): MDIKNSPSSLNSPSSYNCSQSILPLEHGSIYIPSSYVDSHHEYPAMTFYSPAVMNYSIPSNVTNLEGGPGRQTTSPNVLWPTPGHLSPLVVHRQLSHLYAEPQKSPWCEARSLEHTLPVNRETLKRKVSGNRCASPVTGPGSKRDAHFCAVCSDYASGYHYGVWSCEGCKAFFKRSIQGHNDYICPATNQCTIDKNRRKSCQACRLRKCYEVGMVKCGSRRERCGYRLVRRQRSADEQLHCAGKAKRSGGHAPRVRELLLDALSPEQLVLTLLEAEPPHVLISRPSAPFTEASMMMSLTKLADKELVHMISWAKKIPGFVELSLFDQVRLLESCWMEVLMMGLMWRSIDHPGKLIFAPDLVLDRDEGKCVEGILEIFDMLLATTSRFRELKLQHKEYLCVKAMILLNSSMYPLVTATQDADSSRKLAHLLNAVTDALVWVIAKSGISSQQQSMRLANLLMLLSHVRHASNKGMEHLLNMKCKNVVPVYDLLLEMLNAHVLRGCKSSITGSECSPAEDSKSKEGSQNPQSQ
Assay: OT_ER_ERbERb_0480: Odyssey Thera (OT) 8-hour HEK293T Protein-Complementation Assay for Estrogen Receptor-beta/-beta Homodimer (AID 2283357);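 further: active means signal gain over DMSO baseline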
Results filed as inconclusive are left out. Active and inactive are the calls of the source. How the source made its calls: active means hit-call score of the fitted dose curve at least 0.9, where 1 is the maximum; inconclusive means response in the unintended direction; inactive means score below 0.9.
Returns: one label drawn from label 1 for active, label 0 for inactive

Sample answers from the record:
| MOLECULE | ANSWER_LABEL |
| --- | --- |
| CSC1=N[C@@](C)(c2ccccc2)C(=O)N1Nc1ccccc1 | label 0 |
| Cc1ccn2nc(S(=O)(=O)Nc3c(F)cccc3F)nc2n1 | label 0 |
| CCCCOC(=O)[C@@H](C)Oc1ccc(Oc2ccc(C#N)cc2F)cc1 | label 0 |
| CCC(=NOC/C=C/Cl)C1=C(O)CC(C2CCOCC2)CC1=O (stereo not drawn) | label 0 |
| N#CSCSC#N | label 0 |
| COc1ccc(C(=CC(=O)N2CCOCC2)c2ccc(Cl)cc2)cc1OC | label 0 |
| CNc1cnn(-c2cccc(C(F)(F)F)c2)c(=O)c1Cl | label 0 |
| CCOP(=O)(NC(C)C)Oc1ccc(SC)c(C)c1 (stereo not drawn) | label 0 |
| CCOP(=S)(OCC)SCCSCC | label 0 |
| Nc1nc(N)nc(NC2CC2)n1 | label 0 |

Recorded test call requested for CCc1cccc(C)c1N(C(=O)CCl)C(C)COC (stereo not drawn)
label 0

Recorded test call requested for CCOP(=S)(OCC)OC(Cl)C(Cl)(Cl)Cl (stereo not drawn)
label 1

// outcome(item) with item = C[N+]1(C)CCCCC1
label 0
